Test: Plasma pharmacokinetics of LXI-15029 (LC-MS/MS, non-compartmental analysis)
Assay type: in vivo, human
Conditions: human, plasma, oral; multiple dose, cycle 1 day 28; 20 mg BID (n = 3); geometric mean (coefficient of variation)
readout-name: AUC (ng·h/mL)
Number in ng·h/mL, nothing else.

### Prompt Give me measured AUC, please, for this compound: CNC(=O)c1cccc(-c2ccc3c(N4C5CCC4COC5)nc(N4CCOC[C@@H]4C)nc3n2)c1 [LXI-15029]
### Response 863

====

Test: Plasma pharmacokinetics of LXI-15029 (LC-MS/MS, non-compartmental analysis)
Format: in vivo, human
Settings: human, plasma, oral, 10 mg BID, multiple dose, cycle 1 day 28; 10 mg BID (n = 3); geometric mean (coefficient of variation); read-out: Cav ss
readout-name: concentration at 28 day (ng/mL)
Give the quantity in ng/mL, number only.

### Prompt Look up and report measured concentration at 28 day for this entry: CNC(=O)c1cccc(-c2ccc3c(N4C5CCC4COC5)nc(N4CCOC[C@@H]4C)nc3n2)c1 [LXI-15029]
### Response 15.9
